# ASSAY_DETAILS: solvent given as SMILES
# CONDITION_PARAMETERS: in CC(C)=O
Each record gets a class by absorption maximum: low range = under 400 nm, mid range = from 400 nm up to 500 nm, high range = 500 nm and over

CHEMICAL_STRING	GROUP_LABEL
O=C1c2ccccc2C(=O)N1c1ccc(Cn2cncn2)cc1	low range
Cn1c(=O)c(/N=N/c2cc(S(=O)(=O)O)ccc2S(=O)(=O)O)c(O)c2ccccc21	mid range
Cn1c(=O)c(/N=N/c2ccc(/N=N/c3ccc(S(=O)(=O)O)cc3)cc2)c(O)c2ccccc21	mid range
CCC1(CC)c2cc(B(c3c(C)cc(C)cc3C)c3c(C)cc(C)cc3C)ccc2-c2ccc(N(c3ccccc3)c3ccc4c(c3)C(CC)(CC)c3cc(B(c5c(C)cc(C)cc5C)c5c(C)cc(C)cc5C)ccc3-4)cc21	mid range
CN(C)c1ccc(C2=Nc3sc4cc(Cl)ccc4[n+]3[B-](F)(F)O2)cc1	mid range
CCC1=C(C)C2=Cc3c(I)c(I)c(I)n3[B-](F)(F)[N+]2=C1C	high range
